Attribution: paper doi:10.1101/2025.06.05.658000

Biological target: HLA-DR (DRA1*01:01 / DRB1*04:05), soluble knob-into-hole Fc heterodimer (human)
Assay: ELISA
measured_quantity: Ki (µM)
One number for each entry, in µM.

So, KPVSKMRMATPLLMQALPM [human CLIP peptide, unlabelled competitor] ? Its Ki was 0.0419
